- systemUnderTest: Cytosolic phospholipase A2 (Homo sapiens) (UniProt P47712)
- Sequence (P47712 whole entry): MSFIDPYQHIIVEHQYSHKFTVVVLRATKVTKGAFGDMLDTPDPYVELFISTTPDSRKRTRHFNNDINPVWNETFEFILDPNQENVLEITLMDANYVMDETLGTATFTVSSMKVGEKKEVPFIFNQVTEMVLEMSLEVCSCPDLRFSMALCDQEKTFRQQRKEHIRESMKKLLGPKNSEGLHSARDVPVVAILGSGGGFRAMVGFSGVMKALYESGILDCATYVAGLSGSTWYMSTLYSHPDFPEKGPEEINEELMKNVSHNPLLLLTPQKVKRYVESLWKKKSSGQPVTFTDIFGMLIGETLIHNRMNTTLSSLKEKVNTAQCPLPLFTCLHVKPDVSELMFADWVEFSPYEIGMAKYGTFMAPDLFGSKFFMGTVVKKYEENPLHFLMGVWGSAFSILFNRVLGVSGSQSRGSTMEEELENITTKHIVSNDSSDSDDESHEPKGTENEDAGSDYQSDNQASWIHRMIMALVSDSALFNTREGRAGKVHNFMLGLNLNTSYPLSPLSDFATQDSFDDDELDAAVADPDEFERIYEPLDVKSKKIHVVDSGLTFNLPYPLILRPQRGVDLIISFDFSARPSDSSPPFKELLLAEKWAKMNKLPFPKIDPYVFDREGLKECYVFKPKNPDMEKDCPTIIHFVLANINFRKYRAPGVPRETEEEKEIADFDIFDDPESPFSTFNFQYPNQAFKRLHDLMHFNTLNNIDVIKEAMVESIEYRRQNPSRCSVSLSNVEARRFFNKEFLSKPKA
- assayRemarks: Inhibition of cPLA2-alpha activity assessed by A23187-induced arachidonic acid release in human platelet at 10 uM
- Format: functional
The source made the active and inactive calls. No cut-off for these calls is given here.
readoutType: inhibition

smilesstring=CCCCCCCCc1ccc(OCC(=O)Cn2ccc3cc(C)ccc32)cc1 testvalue=inactive
smilesstring=CCCCCCCCc1ccc(OCC(=O)Cn2ccc3cc(C(=O)OC)ccc32)cc1 testvalue=40%
smilesstring=CCCCCCCCc1ccc(OCC(=O)Cn2ccc3cc(C#N)ccc32)cc1 testvalue=46%
smilesstring=CCCCCCCCc1ccc(OCC(=O)Cn2cc(C(=O)O)c3ccccc32)cc1 testvalue=40%
smilesstring=CCCCCCCCc1ccc(OCC(=O)Cn2ccc3ccccc32)cc1 testvalue=43%
smilesstring=CCCCCCCCc1ccc(OCC(=O)Cn2ccc3cc(Cl)ccc32)cc1 testvalue=inactive
smilesstring=CCCCCCCCc1ccc(OCC(=O)Cn2ccc3c(C(=O)O)cccc32)cc1 testvalue=40%
smilesstring=CCCCCCCCc1ccc(OCC(=O)Cn2ccc3cc(OC)ccc32)cc1 testvalue=37%
